- TEST_PROTOCOL: HTRF spectral interference by compounds, SAR follow-up, artefact control, biochemical, fluorescence ratio (AID 2496)
- EXPERIMENTAL_CONDITIONS: HTRF spectral interference counter-screen
The source made the active and inactive calls. Cut-off read from the data, not from the text of the source: active = IC50 below about 40 µM; inactive = the rest.
MEASUREMENT_NAME: IC50

Examples with answers:
> print(dat)
                                   compound  measurement.name              result
1  O=C(NC1CCCC1)c1ccc2nc(-c3ccco3)c(-c3ccco3)nc2c1              IC50  > 50 µM (inactive)
2          CC(/C=C/c1ccco1)=NNC(=O)c1cccnc1              IC50  > 50 µM (inactive)
3  Cc1ccc(/C=C/C(=O)NCc2ccc(S(N)(=O)=O)cc2)o1              IC50  > 50 µM (inactive)
4  CN(C(=O)COC(=O)c1cc(-c2ccco2)nc2ccccc12)C1CCS(=O)(=O)C1 (configuration not stated)              IC50    26.6 µM (active)

Lookup result for O=C(NN=Cc1ccc(F)cc1)c1cc(-c2ccco2)nc2ccccc12 ; measured IC50: > 50 µM (inactive)

Lookup result for Nc1ccc(-c2nc3c(Cl)c(N)ccc3[nH]2)cc1 ; measured IC50: 5.59 µM (active)

Lookup result for CCN(CC)CCNC(=O)c1cc(-c2ccco2)nc2ccccc12 ; measured IC50: 19.8 µM (active)

Lookup result for CCNC(=O)COC(=O)c1cc(-c2ccco2)nc2ccccc12 ; measured IC50: > 50 µM (inactive)

Lookup result for Nc1ncnc2oc(-c3ccco3)c(-c3ccco3)c12 ; measured IC50: > 50 µM (inactive)

* * *

- TEST_PROTOCOL: HTRF spectral interference by compounds, SAR follow-up, artefact control, biochemical, fluorescence ratio (AID 2496)
- EXPERIMENTAL_CONDITIONS: HTRF spectral interference counter-screen
Activity calls are given as the source filed them. Cut-off read from the data, not from the text of the source: active = IC50 below about 40 µM; inactive = the rest.
Write down one outcome, taken from 1 = active, 0 = inactive

Check out these entries, answers already filled in.
> print(dat)
                            chemical.smiles  class
1  CN(CCC#N)C(=O)COC(=O)c1c2c(nc3ccccc13)/C(=C/c1ccco1)CC2      1
2  CCN(CC)C(=O)COC(=O)c1cc(-c2ccco2)nc2ccccc12      1

stdin: Which outcome was assigned to Cc1ccc(S(=O)(=O)N(C)C)cc1NC(=O)c1cc(-c2ccco2)nc2ccccc12 in this test?
stdout: 0

Data credit: PubChem BioAssay AID2496
